# target: Hsp82 (Saccharomyces cerevisiae, UniProt P02829)
# Sequence (P02829 whole entry): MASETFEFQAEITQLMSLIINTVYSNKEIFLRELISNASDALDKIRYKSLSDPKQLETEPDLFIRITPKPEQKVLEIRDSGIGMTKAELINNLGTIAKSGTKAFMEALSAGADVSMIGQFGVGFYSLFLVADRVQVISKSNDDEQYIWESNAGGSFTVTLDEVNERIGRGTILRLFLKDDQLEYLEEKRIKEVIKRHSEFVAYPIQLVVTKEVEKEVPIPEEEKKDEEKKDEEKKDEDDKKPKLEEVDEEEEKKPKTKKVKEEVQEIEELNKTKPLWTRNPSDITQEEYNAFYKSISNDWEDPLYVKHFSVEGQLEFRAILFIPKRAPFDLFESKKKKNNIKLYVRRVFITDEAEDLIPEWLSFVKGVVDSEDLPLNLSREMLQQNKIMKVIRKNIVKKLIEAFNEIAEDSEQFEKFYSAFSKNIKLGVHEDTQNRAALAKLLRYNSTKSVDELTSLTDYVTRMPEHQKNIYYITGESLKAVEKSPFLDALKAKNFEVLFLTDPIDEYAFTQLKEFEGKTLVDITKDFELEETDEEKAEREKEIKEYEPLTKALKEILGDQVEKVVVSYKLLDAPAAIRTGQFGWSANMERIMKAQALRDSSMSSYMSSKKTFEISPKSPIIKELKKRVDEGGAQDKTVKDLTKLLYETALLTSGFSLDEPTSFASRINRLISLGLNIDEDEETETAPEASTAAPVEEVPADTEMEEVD
# assayProcedure: PK/LDH enzyme coupling test of the ATPase activity of Hsp82 (NADH decrease at 340 nm)
# Format: biochemical
# assayConditions: 1 μM Hsp82, 250 μM ATP, 37° C., pyruvate kinase/lactate dehydrogenase coupling, read-out: Hsp82 ATPase IC50
pIC50: −log10 of the molar value.
readoutName: pIC50

Field: example entries. Status: answers known.
compound	pIC50
Cc1ccc2c(C(=O)NC3c4ccccc4-c4c(-c5nc6ccncc6[nH]5)cccc43)cccc2n1 (centres unmarked)	5.00 to 6.00
Nc1cccc(C(=O)NC2c3ccccc3-c3c(-c4nc5ccncc5[nH]4)cccc32)c1 (racemic)	4.00 to 5.00
O=C(NC1c2ccccc2-c2c(-c3nc4ccncc4[nH]3)cccc21)c1cc(O)nc(O)n1 (centres unmarked)	5.00 to 6.00
O=C(NC1c2ccccc2-c2c(-c3nc4ccncc4[nH]3)cccc21)c1cc[n+]([O-])cc1 (racemic)	5.00 to 6.00
c1ccc2c(c1)-c1c(-c3nc4cnccc4[nH]3)cccc1C2NCc1ccc2[nH]ccc2c1 (racemic)	4.00 to 5.00

Exercise: Enter reported pIC50 observed with Hsp82 (Saccharomyces cerevisiae, UniProt P02829) for CCOC(=O)NC1c2ccccc2-c2c(-c3nc4cnccc4[nH]3)cccc21 (racemic)
Solution: 5.00 to 6.00

Exercise: One more compound: CN(C)c1cccc2c(S(=O)(=O)NC3c4ccccc4-c4c(-c5nc6ccncc6[nH]5)cccc43)cccc12 (racemic)
Solution: 4.00 to 5.00

Exercise: One more compound: CC(=O)NC1c2ccccc2-c2c(-c3nc4ccncc4[nH]3)cccc21 (racemic)
Solution: 5.00 to 6.00

Exercise: One more compound: OC=C1c2ccccc2-c2c1cccc2-c1nc2cnccc2[nH]1 (mixture of isomers)
Solution: 4.00 to 5.00

Exercise: One more compound: O=C(NC1c2ccccc2-c2c(-c3nc4ccc(O)cc4[nH]3)cccc21)c1ccncc1 (racemic)
Solution: 5.00 to 6.00

Exercise: One more compound: O=C(NC1c2ccccc2-c2c(-c3nc4cccnc4[nH]3)cccc21)c1ccncc1 (racemic)
Solution: 4.00 to 5.00

Exercise: One more compound: O=C(NC1c2ccccc2-c2c(-c3nc4ccncc4[nH]3)cccc21)c1ccncc1 (racemic)
Solution: > 6.00

Exercise: One more compound: ON=C1c2ccccc2-c2c1cccc2-c1nc2ccc(F)cc2[nH]1 (racemic)
Solution: 5.00 to 6.00

Exercise: One more compound: O=C(NC1c2ccccc2-c2c(-c3nc4ccncc4[nH]3)cccc21)c1cccc2cc(O)ccc12 (racemic)
Solution: 5.00 to 6.00

Exercise: One more compound: O=C(NC1c2ccccc2-c2c(-c3nc4ccncc4[nH]3)cccc21)c1ccnc(O)n1 (centres unmarked)
Solution: 5.00 to 6.00

---

# target: Hsp82 (Saccharomyces cerevisiae, UniProt P02829)
# assayProcedure: PK/LDH enzyme coupling test of the ATPase activity of Hsp82 (NADH decrease at 340 nm)
# Assay type: biochemical
# assayConditions: 1 μM Hsp82, 250 μM ATP, 37° C., pyruvate kinase/lactate dehydrogenase coupling, read-out: Hsp82 ATPase IC50
pIC50: −log10 of the molar value.
Collected pIC50 values appear next to each entry.

molecule	readoutName	result
O=C(NC1c2ccccc2-c2c(-c3nc4ccncc4[nH]3)cccc21)c1ccnc2[nH]ccc12 (racemic) [Example 92]	pIC50	> 6.00
CNc1cc(C(=O)NC2c3ccccc3-c3c(-c4nc5ccncc5[nH]4)cccc32)ccn1 (racemic) [Example 116]	pIC50	5.00 to 6.00
O=C(NC1c2ccccc2-c2c(-c3nc4ccncc4[nH]3)cccc21)c1ccnc(N2CCCC2)c1 (racemic) [Example 120]	pIC50	5.00 to 6.00
O=C(NC1c2ccccc2-c2c(-c3nc4ccncc4[nH]3)cccc21)c1ccc2[nH]nnc2c1 (racemic) [Example 41]	pIC50	> 6.00

Exercise: Which pIC50 value belongs to O=C(NC1c2ccccc2-c2c(-c3nc4ccncc4[nH]3)cccc21)c1ccncc1F (racemic) [Example 114] ?
Solution: 5.00 to 6.00
